System: epoxide hydrolase
Test: Substrate activity at epoxide hydrolase in human HepG2 cell lysate after 5 mins by Lineweaver-Burk plot analysis
Type: ADME
ASSAY ENDPOINT: Km at 5 min (µM)

A = O=C1Nc2ccccc2/C1=C1/Nc2ccccc2/C1=N\OCC1CO1 (configuration not stated)
B = O=C1Nc2ccc(Br)cc2/C1=C1/Nc2ccccc2/C1=N\OCC1CO1 (configuration not stated)
Q: Lower value for measured Km at 5 min? Options: A , B Record your answer as the label of the chosen record.
A: A

----------
Catalogue of compounds with associated IC50
Tested on: HepG2
Assay: Cytotoxicity against human HepG2 cells assessed as cell growth inhibition after 24 hrs by alamar blue assay
Type: functional, cell-based
Conditions: HepG2, 24 h

O=C1Nc2c(Br)cccc2/C1=C1/Nc2ccc(Br)cc2C1=O; > 100 µM
O=C1Nc2c(Br)cc(Br)cc2/C1=C1/Nc2ccccc2/C1=N\O; 6.6 µM
O=C1Nc2c(Br)cccc2/C1=C1/Nc2cc(Br)ccc2C1=O; > 100 µM
O=C1Nc2ccccc2/C1=C1/Nc2ccc(Br)cc2/C1=N\OCC1CO1 (stereo not drawn); 3.3 µM
COc1ccc2c(c1)/C(=C1/Nc3ccccc3/C1=N\O)C(=O)N2; 6.2 µM
O=C1Nc2cc(Br)ccc2/C1=C1/Nc2cc(Br)ccc2/C1=N\O; 16 µM

Q: Tell me measured IC50 for O=C1Nc2cc(Br)ccc2/C1=C1/Nc2cc(Br)ccc2/C1=N\OCC1CO1 (stereo not drawn) please.
A: > 100 µM

Q: Tell me measured IC50 for COc1ccc2c(c1)NC(=O)/C2=C1\Nc2ccccc2\C1=N/OCC1CO1 (stereo not drawn) please.
A: 61 µM

Q: Tell me measured IC50 for O=C1Nc2cc(Br)ccc2/C1=C1/Nc2ccccc2/C1=N\OCC1CO1 (stereo not drawn) please.
A: > 100 µM

Q: Tell me measured IC50 for `O=C1Nc2ccc(I)cc2/C1=C1/Nc2ccccc2C1=O` please.
A: > 100 µM

Q: Tell me measured IC50 for `O=C1Nc2ccc(Br)cc2/C1=C1/Nc2ccc(Br)cc2C1=O` please.
A: > 100 µM

Q: Tell me measured IC50 for O=C1Nc2ccc(Cl)cc2/C1=C1/Nc2ccccc2/C1=N\OCC1CO1 (stereo not drawn) please.
A: 1.3 µM

Q: Tell me measured IC50 for O=C1Nc2ccccc2/C1=C1/Nc2ccccc2/C1=N\OCCC1CO1 (stereo not drawn) please.
A: 7.8 µM

Q: Tell me measured IC50 for `O=C1Nc2ccccc2/C1=C1/Nc2ccc(Br)cc2/C1=N\O` please.
A: 11 µM

Q: Tell me measured IC50 for `O=C1Nc2ccc(Cl)cc2/C1=C1/Nc2ccccc2C1=O` please.
A: > 100 µM

Q: Tell me measured IC50 for `COc1cccc2c1NC(=O)/C2=C1\Nc2ccccc2C1=O` please.
A: > 100 µM

Q: Tell me measured IC50 for `O=C1Nc2cc(Br)ccc2/C1=C1/Nc2ccccc2C1=O` please.
A: > 100 µM

Q: Tell me measured IC50 for `O=C1Nc2ccccc2/C1=C1/Nc2cc(Br)ccc2C1=O` please.
A: > 100 µM

Q: Tell me measured IC50 for `O=C1Nc2ccc(Br)cc2/C1=C1/Nc2ccccc2C1=O` please.
A: > 100 µM

Q: Tell me measured IC50 for `O=C1Nc2ccc(F)cc2/C1=C1/Nc2ccccc2C1=O` please.
A: > 100 µM

Q: Tell me measured IC50 for O=C1Nc2c(Br)cc(Br)cc2/C1=C1/Nc2ccccc2/C1=N\OCC1CO1 (stereo not drawn) please.
A: 8.8 µM

Q: Tell me measured IC50 for O=C1Nc2cc(Br)ccc2/C1=C1/Nc2ccc(Br)cc2/C1=N\OCC1CO1 (stereo not drawn) please.
A: > 100 µM

Q: Tell me measured IC50 for `O=C1Nc2c(Br)cccc2/C1=C1/Nc2ccccc2C1=O` please.
A: > 100 µM
